biological target: Focal adhesion kinase 1 (Homo sapiens); assay: small-molecule microarray binders of FAK, primary screen, biochemical, 635/667 nm fluorescence, BSA, DTT (AID 1130); settings: PTK2 binding, 635 nm fluorescence, higher = more signal;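 further: composite of spot emission at 667 nm and signal to noise over triplicate slides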
assay-endpoint: composite z-score

Examples with answers:
compound	composite z-score
O=C1C2C=CC(C(O)C3CCCCC3)N(Nc3ccc([N+](=O)[O-])cc3)C2C(=O)N1c1ccccc1 (centres undefined)	0.539
CC1(C)[C@@H]2CC(C(O)C3C=CC4C(=O)N(c5ccccc5)C(=O)C4N3Nc3ccccc3)=C[C@H]1C2 (some centres undefined)	1.13
O=C(O)[C@@]1(CCS(=O)(=O)c2ccccc2)COC(c2ccc(OCCCO)cc2)=N1	-0.283

Now for a further compound.
Incoming: Lab note: need composite z-score with Focal adhesion kinase 1 (Homo sapiens) for entry `C=CCN1C(=O)[C@]2(O[C@H](CCO)[C@@H]([Si](C)(C)c3ccc(OC)cc3)[C@@H]2C)c2cc(N3C(=O)c4cccc5cccc3c45)ccc21` , please look it up.
Outgoing: 1.05

###

assay: A549 lung cancer cell viability effects, profiling panel, resazurin fluorescence, 24 h, PK04 Diversity Set (AID 1171); conditions: higher = more signal, called active from +8 up or from −8 down; further: test concentration not given here
Classify as follows. Reported z-score greater than or equal to -0.3: satisfied. Reported z-score below: not satisfied.

Here are 5 molecules together with their reported answers.
molecule	class-name
CN(C)C(=O)[C@]1(Cc2ccccc2N=[N+]=[N-])N=C(c2ccc(OCCCO)cc2)O[C@@H]1c1ccccc1	not satisfied
CC1CC/C=C\[C@H]2OC34C=CCN(Cn5nnc6ccccc65)C(=O)[C@H]3N(C(CO)C(C)C)C(=O)[C@@H]4C2C(=O)O1 (some centres not stated)	satisfied
O=C(NCc1ccccc1)[C@@]1(Cc2ccccc2)N=C(c2ccc(OCCCO)cc2)O[C@H]1c1ccccc1	not satisfied
C=CCOC(=O)[C@@H]1[C@H]2C(=O)O[C@H](c3ccccc3)[C@H](c3ccccc3)N2[C@H](c2ccc(OCCOC(=O)[C@@H]3C[C@@H]4C(=O)N[C@@H](CCCC[N+](C)(C)C)C(=O)N4[C@@H]3c3cccc(OCCO)c3)cc2)[C@@]12C(=O)Nc1ccc(I)cc12	satisfied
COc1ccc(C(O)C2C=CC3C(=O)N(c4ccccc4)C(=O)C3N2Nc2ccccc2F)cc1OCc1ccccc1 (configuration not stated)	satisfied

Incoming: Please tell me: is the molecule `O=C(O)[C@@]1(CCS(=O)(=O)c2ccccc2)COC(c2ccc(OCCCO)cc2)=N1` at or over -0.3 in terms of z-score?
Outgoing: satisfied

Incoming: Hi, just wondering whether CC(C)c1ccc(NN2C(C(O)C(c3ccccc3)c3ccccc3)C=CC3C(=O)N(c4ccccc4)C(=O)C32)cc1 (configuration not stated) shows z-score of -0.3 or higher.
Outgoing: not satisfied

###

test: basal RPMI8226 viability, no added stimulus, profiling panel, cell-based, calcein-AM fluorescence, 48 h, PK04 Diversity Set (AID 1166); conditions: RPMI8226 myeloma viability, higher = more signal;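 further: cells grown under basal conditions without added stimulus; test concentration not given here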
For each of the compounds below, state its z-score.
Numbers only.

Solved cases below.
compound	endpoint-result
CCCC[C@H]1OB(O)C[C@H]2C1=C(COc1ccccc1)C[C@H]1C(=O)N(C)C(=O)[C@H]12	-0.185
C=CCN(Cc1ccccc1)C(=O)C(c1cccs1)N(CCOCCO)C(=O)/C=C\C(=O)O (centres undefined)	1
Cc1ccc(S[C@]2(C(=O)NCC(C)C)CC(=O)N(Cc3cc(C(F)(F)F)cc(C(F)(F)F)c3)[C@@H]2c2ccc(CO)cc2I)cc1	-2.29

The record that follows has no z-score shown yet.
Incoming: So what does the record say about z-score for `COCCCNC(=O)[C@@]1(Cc2ccccc2)N=C(c2ccc(OCCCO)cc2)O[C@H]1c1ccccc1` ?
Outgoing: -0.856
